System: 786-0
Test Protocol: NCI tumour cell line growth inhibition, 48 h
Activity calls are given as the source filed them. Cut-off read from the data, not from the text of the source: active = GI50 up to about 1.1 µM and inactive = higher.
Possible outcomes: true = active, false = inactive

• CC1OC(OC2CC(O)(C(=O)CO)Cc3c(O)c4c(c(O)c32)C(=O)c2ccccc2C4=O)CC(N)C1O (stereo unspecified) = true
• CC(NC(=O)/C(=C/c1ccccc1O)NC(=O)c1ccccc1)C(=O)O (stereo unspecified) = false
• CCc1cc2c(c3c1CCC3=O)CC1(Cc3ccc(C)cc3C1)C2 (stereo unspecified) = false
• COc1ccc(/C=C(\C#N)c2ccccn2)cc1OC = false
• Cc1nn(C(=O)c2ccc(Cl)cc2)c2c1C(c1ccc(O)cc1)SC(=N)N2 (stereo unspecified) = false
• COc1ccc(-n2c(=O)n(C)c(=O)n2-c2ccc(OC)cc2)cc1 = false
• [O-][S+]1C(=c2ccc(=C3Sc4ccccc4S3)cc2)Sc2ccccc21 (stereo unspecified) = false
• COC(=O)C(c1n[nH]c2ccccc12)C(C(=O)OC)c1n[nH]c2ccccc12 (stereo unspecified) = false
• O=C(N/N=C\c1cccs1)c1ccncc1 = false
• O=c1[nH]c2nc[nH]c2c(=O)n1C1CCCCC1 = false
• COC1(OC)CC(CO)(CNc2nc(N)nc(Cl)c2C=O)C1 = false
• C/C(O)=C1\CC2CN3CCc4c([nH]c5ccccc45)C3CC2CC1=O (stereo unspecified) = false
• CO[C@]12C[C@H](CNC(=O)c3cc(Br)c(Br)[nH]3)O[C@H]1NC(=O)N2 = false
• CCCCC1Cc2cc(OC)ccc2-c2n1c1cc(OC)ccc1[n+]2C.CCCCC1Cc2cc(OC)ccc2-c2n1c1ccc(OC)cc1[n+]2C (stereo unspecified) = false
• O=C(OCc1ccccc1)N1CCNCCN(C(=O)OCc2ccccc2)CCNCC1 = false
• Fc1ccc(C(OCCN2CCN(CCCCl)CC2)c2ccc(F)cc2)cc1 = false
• O=c1c(C(c2cccnc2)c2c(O)oc3cc(O)ccc3c2=O)c(O)oc2cc(O)ccc12 = false
• O=C1/C(=C2\SCC(=O)N2c2ccccc2)SC(=S)N1c1ccccc1 = false
• COc1ccc(/N=N/C(=N\c2ccccc2)c2ccc(N(CCC#N)CCC#N)cc2)cc1 = false
• O=C(O[C@H](/C=C/c1ccccc1)P1(=O)N(Cc2ccccc2)[C@@H]2CCCC[C@H]2N1Cc1ccccc1)c1ccccc1 = false
• Cc1nc2cccc(F)c2c(=O)n1-c1nnc(C(F)(F)F)s1 = false
